These entries and their values trace back to paper PMC10155261.

target: dopamine D3 (Homo sapiens)
Sequence (P35462 whole entry): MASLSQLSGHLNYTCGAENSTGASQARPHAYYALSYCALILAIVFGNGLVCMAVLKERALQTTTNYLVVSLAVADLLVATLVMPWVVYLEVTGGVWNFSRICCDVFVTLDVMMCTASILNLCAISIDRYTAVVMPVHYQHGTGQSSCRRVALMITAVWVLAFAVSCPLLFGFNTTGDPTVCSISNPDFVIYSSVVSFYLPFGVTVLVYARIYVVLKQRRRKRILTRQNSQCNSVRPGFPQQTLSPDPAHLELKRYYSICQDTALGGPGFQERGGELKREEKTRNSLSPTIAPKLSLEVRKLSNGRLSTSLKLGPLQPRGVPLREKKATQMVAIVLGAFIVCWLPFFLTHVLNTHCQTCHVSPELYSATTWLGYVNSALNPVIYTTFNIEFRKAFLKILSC
READOUT: Ki (nM)

[
  {
    "COMPOUND": "C#CC1CCN(C(=O)c2cn(-c3ccc4scc(C)c4c3)c(=O)c3cc(OC)c(OC)cc23)CC1 [Compound 66]",
    "UNIT_ABBREVIATION": "nM",
    "REPORTED_MEASUREMENT": 380
  }
]

----------
assay: Bidirectional MDCK-MDR1 permeability; type: in vitro ADME; conditions: dog, MDCK-MDR1, pH 7.4
READOUT: Papp A→B at 90 min, 10 μM (×10⁻⁶ cm/s)

[
  {
    "SMILES_CODE": "C#CC1CCN(C(=O)c2cn(-c3ccc4scc(C)c4c3)c(=O)c3cc(OC)c(OC)cc23)CC1",
    "REPORTED_MEASUREMENT": 30.4
  }
]
